Attribution: the kinase profiling compilation of Christmann-Franck et al. (2016)

measured_on: MINK1 (human)
assay: radiometric filter-binding kinase assay
test_settings: compound 1.0 µM

{"molecule": "CCNc1nc(Nc2cc(F)c(C(=O)N3CCOCC3)cc2OC)ncc1C(F)(F)F", "measured_on": "MINK1 (human)", "measurement_unit": "%", "residual activity": 115}
{"molecule": "CC(C)(C#N)c1ccc(N2C(=O)OCc3cnc4ccc(-c5cnc6ccccc6c5)cc4c32)cc1", "measured_on": "MINK1 (human)", "measurement_unit": "%", "residual activity": 72}
{"molecule": "CCCCCc1ccc(/C=C/[C@H](O)[C@@H](CO)NC)cc1", "measured_on": "MINK1 (human)", "measurement_unit": "%", "residual activity": 93}
{"molecule": "N#Cc1c(C2CCNCC2)cc(-c2c(O)cccc2OCC2CC2)nc1N", "measured_on": "MINK1 (human)", "measurement_unit": "%", "residual activity": 66}
{"molecule": "FC(F)(F)c1ccc(-c2ccc(Oc3cncc4sc(-c5nn[nH]n5)cc34)cc2)cc1", "measured_on": "MINK1 (human)", "measurement_unit": "%", "residual activity": 96}
{"molecule": "CN1C(=O)[C@@H](Cc2c[nH]c3ccccc23)NC1=S", "measured_on": "MINK1 (human)", "measurement_unit": "%", "residual activity": 103}
{"molecule": "Nc1cccc2c1CN(C1CCC(=O)NC1=O)C2=O (stereo unspecified)", "measured_on": "MINK1 (human)", "measurement_unit": "%", "residual activity": 111}
{"molecule": "Cc1cccc(-c2nn(C(=S)Nc3ccccc3)cc2-c2ccnc3ccccc23)n1", "measured_on": "MINK1 (human)", "measurement_unit": "%", "residual activity": 13}
{"molecule": "NCC(=O)Nc1ccc(-n2nc(C(F)(F)F)cc2-c2ccc3c(ccc4ccccc43)c2)cc1", "measured_on": "MINK1 (human)", "measurement_unit": "%", "residual activity": 78}
{"molecule": "Cc1cc(NC(=O)c2cccc(NC(=O)/C=C/CN(C)C)c2)ccc1Nc1nccc(-c2cccnc2)n1", "measured_on": "MINK1 (human)", "measurement_unit": "%", "residual activity": 78}
{"molecule": "O=C(N[C@@H](COc1ccc2[nH]c(=O)[nH]c2c1)c1ccccc1)c1cccn(Cc2ccc(F)c(F)c2)c1=O", "measured_on": "MINK1 (human)", "measurement_unit": "%", "residual activity": 100}

====

measured_on: UniProt:P11309
Sequence (P11309 whole entry, looked up): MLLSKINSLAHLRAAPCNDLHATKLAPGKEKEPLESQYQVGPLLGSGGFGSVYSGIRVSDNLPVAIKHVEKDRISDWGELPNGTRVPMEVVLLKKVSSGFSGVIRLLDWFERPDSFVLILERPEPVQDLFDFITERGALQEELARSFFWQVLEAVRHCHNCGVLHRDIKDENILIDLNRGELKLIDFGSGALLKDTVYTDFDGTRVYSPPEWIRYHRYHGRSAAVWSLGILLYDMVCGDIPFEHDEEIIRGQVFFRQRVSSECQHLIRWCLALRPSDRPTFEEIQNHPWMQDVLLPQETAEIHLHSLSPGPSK
assay: radiometric filter-binding kinase assay
test_settings: compound 1.0 µM
The following molecules are shown together with reported residual activity values.
experimental_readout: residual activity (%)

{"molecule": "CCn1c(-c2nonc2N)nc2cncc(CNC3CCNCC3)c21", "experimental_readout": "residual activity", "test_result": 35}
{"molecule": "Oc1ccc(/C=C/c2cc(O)cc(O)c2)cc1", "experimental_readout": "residual activity", "test_result": 50}
{"molecule": "O=C1NC(=S)N[C@@H]1Cc1c[nH]c2ccccc12", "experimental_readout": "residual activity", "test_result": 89}
{"molecule": "O=C(NOCC(O)CO)c1ccc(F)c(F)c1Nc1ccc(I)cc1Cl (stereo not drawn)", "experimental_readout": "residual activity", "test_result": 102}
{"molecule": "N#Cc1c(C2CCNCC2)cc(-c2c(O)cccc2OCC2CC2)nc1N", "experimental_readout": "residual activity", "test_result": 63}
{"molecule": "O=C(NCCCNc1nc(Nc2cccc(CN3CCOCC3)c2)ncc1C1CC1)C1CCC1", "experimental_readout": "residual activity", "test_result": 120}
{"molecule": "NC(=O)c1cc(-c2ccnc(NC3CCCCC3)c2)nc(N2CCNCC2)c1", "experimental_readout": "residual activity", "test_result": 98}
{"molecule": "c1ccc2c(-c3cnn4cc(-c5ccc(N6CCNCC6)cc5)cnc34)ccnc2c1", "experimental_readout": "residual activity", "test_result": 83}

====

# residual activity annotations
measured_on: UniProtKB Q15746
Sequence (Q15746 whole entry, looked up): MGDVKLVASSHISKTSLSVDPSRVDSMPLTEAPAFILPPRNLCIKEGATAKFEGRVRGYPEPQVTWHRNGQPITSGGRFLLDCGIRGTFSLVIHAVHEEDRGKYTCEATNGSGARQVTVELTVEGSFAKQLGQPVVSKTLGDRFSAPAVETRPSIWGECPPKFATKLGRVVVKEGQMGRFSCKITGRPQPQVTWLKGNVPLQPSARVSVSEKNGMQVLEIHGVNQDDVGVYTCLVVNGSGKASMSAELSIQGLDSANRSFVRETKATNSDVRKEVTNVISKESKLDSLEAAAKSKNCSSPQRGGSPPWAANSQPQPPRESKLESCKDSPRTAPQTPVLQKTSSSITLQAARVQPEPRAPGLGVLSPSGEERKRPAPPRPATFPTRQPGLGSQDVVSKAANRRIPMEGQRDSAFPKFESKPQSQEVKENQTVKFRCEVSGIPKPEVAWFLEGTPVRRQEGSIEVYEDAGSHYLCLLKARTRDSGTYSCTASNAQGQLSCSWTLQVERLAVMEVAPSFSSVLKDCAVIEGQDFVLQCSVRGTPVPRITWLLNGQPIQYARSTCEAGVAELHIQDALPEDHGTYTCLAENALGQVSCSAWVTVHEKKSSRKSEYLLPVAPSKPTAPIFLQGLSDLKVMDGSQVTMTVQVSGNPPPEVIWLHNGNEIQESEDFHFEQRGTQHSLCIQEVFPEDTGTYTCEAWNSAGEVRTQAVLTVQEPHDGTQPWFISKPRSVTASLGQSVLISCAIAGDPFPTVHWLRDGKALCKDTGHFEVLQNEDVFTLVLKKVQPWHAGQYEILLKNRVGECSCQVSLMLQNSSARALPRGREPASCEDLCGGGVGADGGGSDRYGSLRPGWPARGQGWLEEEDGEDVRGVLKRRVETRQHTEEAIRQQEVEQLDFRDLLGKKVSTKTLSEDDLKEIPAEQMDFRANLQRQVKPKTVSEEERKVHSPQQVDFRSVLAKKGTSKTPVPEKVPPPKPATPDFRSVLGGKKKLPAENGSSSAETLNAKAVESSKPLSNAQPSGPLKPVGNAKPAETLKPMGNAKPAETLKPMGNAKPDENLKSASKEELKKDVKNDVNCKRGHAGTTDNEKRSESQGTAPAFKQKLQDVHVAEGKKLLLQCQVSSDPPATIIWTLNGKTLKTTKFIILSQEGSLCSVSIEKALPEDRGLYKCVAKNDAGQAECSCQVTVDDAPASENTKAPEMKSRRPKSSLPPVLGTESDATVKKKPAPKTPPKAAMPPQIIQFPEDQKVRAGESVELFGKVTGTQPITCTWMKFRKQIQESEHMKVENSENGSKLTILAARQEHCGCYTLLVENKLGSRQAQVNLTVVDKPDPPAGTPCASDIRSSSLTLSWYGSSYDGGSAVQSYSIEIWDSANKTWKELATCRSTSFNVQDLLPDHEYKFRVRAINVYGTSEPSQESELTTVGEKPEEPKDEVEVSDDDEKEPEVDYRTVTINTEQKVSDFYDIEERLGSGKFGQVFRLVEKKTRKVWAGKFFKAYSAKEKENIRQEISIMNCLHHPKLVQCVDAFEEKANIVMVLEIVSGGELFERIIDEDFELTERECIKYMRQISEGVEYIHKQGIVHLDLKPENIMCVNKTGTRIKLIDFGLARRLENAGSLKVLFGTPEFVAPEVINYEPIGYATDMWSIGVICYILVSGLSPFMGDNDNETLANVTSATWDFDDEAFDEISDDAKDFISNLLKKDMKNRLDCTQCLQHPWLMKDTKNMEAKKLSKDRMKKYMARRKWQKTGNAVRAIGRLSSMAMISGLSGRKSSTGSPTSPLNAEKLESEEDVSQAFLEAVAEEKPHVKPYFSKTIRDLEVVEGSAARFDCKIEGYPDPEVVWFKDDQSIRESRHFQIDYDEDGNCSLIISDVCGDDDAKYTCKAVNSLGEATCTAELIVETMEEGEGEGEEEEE
assay: radiometric filter-binding kinase assay
test_settings: compound 10.0 µM
experimental_readout: residual activity

{"cpd_smiles": "Cc1cc(SCc2sc(-c3ccc(C(F)(F)F)cc3)nc2C)ccc1OCC(=O)O", "test_result": "74%"}
{"cpd_smiles": "NC1(c2ccc(-c3nc4ccn5c(=O)[nH]nc5c4cc3-c3ccccc3)cc2)CCC1", "test_result": "72%"}
{"cpd_smiles": "Cc1ccc2c(c1)C(=O)[C@@]1(O)CCN(c3ccccc3)C1=N2", "test_result": "74%"}

====

measured_on: HIPK1 (human)
assay: radiometric filter-binding kinase assay
test_settings: compound 1.0 µM

{"compound": "Cc1ccc(-c2ccc3c(ccc4sc5c(c43)NC[C@@H](C)NC5=O)n2)cn1", "measurement_unit": "%", "residual activity": 104}
{"compound": "CN(C)C/C=C/C(=O)Nc1cccc(C(=O)Nc2ccc(Nc3nccc(-c4cccnc4)n3)cc2)c1", "measurement_unit": "%", "residual activity": 78}
{"compound": "O=C(NOCC(O)CO)c1ccc(F)c(F)c1Nc1ccc(I)cc1Cl (stereo unspecified)", "measurement_unit": "%", "residual activity": 96}
{"compound": "O=C(O)c1cc(N=Nc2ccc(S(=O)(=O)Nc3ccccn3)cc2)ccc1O", "measurement_unit": "%", "residual activity": 111}
{"compound": "CNc1nc(-c2ccc3c(N)n[nH]c3c2)cc(N2C[C@@H](C(=O)NC3CCCCC3)CC[C@H]2C)n1", "measurement_unit": "%", "residual activity": 94}
{"compound": "O=C(NCCCNc1nc(Nc2cccc(CN3CCOCC3)c2)ncc1C1CC1)C1CCC1", "measurement_unit": "%", "residual activity": 94}

====

measured_on: EPHB3 (human) (UniProt P54753)
Sequence (P54753 whole entry, looked up): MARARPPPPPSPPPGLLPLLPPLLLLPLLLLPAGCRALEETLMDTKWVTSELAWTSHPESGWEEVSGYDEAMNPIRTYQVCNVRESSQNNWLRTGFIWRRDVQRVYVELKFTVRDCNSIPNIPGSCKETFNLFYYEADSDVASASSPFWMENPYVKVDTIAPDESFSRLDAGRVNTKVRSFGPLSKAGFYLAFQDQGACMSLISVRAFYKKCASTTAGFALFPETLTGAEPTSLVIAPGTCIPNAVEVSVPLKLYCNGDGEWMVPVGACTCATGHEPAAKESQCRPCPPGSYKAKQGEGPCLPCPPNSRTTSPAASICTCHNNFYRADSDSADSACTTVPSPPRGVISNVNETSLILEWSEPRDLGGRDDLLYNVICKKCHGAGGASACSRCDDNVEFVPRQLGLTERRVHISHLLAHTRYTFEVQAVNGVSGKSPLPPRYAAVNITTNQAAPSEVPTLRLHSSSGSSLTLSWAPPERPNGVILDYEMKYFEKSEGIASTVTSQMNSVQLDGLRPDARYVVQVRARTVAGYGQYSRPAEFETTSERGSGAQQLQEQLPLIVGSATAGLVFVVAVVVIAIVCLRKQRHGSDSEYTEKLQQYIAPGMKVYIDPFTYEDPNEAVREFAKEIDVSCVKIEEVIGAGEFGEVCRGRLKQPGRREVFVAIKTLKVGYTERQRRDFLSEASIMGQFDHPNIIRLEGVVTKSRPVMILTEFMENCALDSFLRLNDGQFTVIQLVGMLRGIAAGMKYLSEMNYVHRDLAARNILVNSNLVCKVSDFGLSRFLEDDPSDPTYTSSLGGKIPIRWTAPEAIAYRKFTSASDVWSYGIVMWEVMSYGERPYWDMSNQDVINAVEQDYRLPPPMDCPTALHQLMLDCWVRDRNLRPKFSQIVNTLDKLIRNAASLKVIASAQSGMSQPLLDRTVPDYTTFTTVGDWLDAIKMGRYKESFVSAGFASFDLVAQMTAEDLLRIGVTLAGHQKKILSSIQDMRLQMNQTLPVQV
assay: radiometric filter-binding kinase assay
test_settings: compound 10.0 µM

{"compound": "COC(=O)/C=C/C(=O)OC", "measured_on": "EPHB3 (human) (UniProt P54753)", "residual activity [%]": 97}
{"compound": "COc1cc2ncn(-c3cc(OCc4ccccc4S(C)(=O)=O)c(C#N)s3)c2cc1OC", "measured_on": "EPHB3 (human) (UniProt P54753)", "residual activity [%]": 27}
{"compound": "Nc1cccc2c1CN(C1CCC(=O)NC1=O)C2=O (stereo unspecified)", "measured_on": "EPHB3 (human) (UniProt P54753)", "residual activity [%]": 102}
{"compound": "N#Cc1c(O)c2c(-c3ccc(-c4ccccc4O)cc3)csc2[nH]c1=O", "measured_on": "EPHB3 (human) (UniProt P54753)", "residual activity [%]": 81}
{"compound": "O=C(Nc1cccnc1)c1cc(-c2ccnc(F)c2)ccc1OCc1ccccc1", "measured_on": "EPHB3 (human) (UniProt P54753)", "residual activity [%]": 113}
{"compound": "Cc1ccc(Sc2cnc(Nc3cccc(Br)n3)s2)cc1C(=O)N1CCN(C(=O)CN)CC1", "measured_on": "EPHB3 (human) (UniProt P54753)", "residual activity [%]": 6}

====

# residual activity per entry
System: PRKAA1 or PRKAA2 (rat)
assay: radiometric filter-binding kinase assay
test_settings: compound 0.1 µM; accession and sequence are those of the human protein
experimental_readout: residual activity

{"compound": "CCCCCc1ccc(/C=C/[C@H](O)[C@@H](CO)NC)cc1", "test_result": "104%"}
{"compound": "O=C(Nc1nc2cc(C(F)(F)F)cc(NC3CC3)n2n1)c1cccnc1", "test_result": "93%"}
{"compound": "COc1cc(O)c2c(c1)/C=C/C[C@H](O)[C@H](O)C(=O)/C=C\\C[C@H](C)OC2=O", "test_result": "100%"}
{"compound": "O=C(O)c1ccc(-c2c[nH]c3ncc(-c4ccccc4)cc23)cc1C1CCCC1", "test_result": "49%"}
{"compound": "NC1(c2ccc(-c3nc4ccn5c(=O)[nH]nc5c4cc3-c3ccccc3)cc2)CCC1", "test_result": "98%"}
{"compound": "COc1cc(O)c2c(c1)[C@H]1OC1C[C@H](O)[C@H](O)C(=O)/C=C\\C[C@H](C)OC2=O (some centres not stated)", "test_result": "105%"}
{"compound": "COc1ccc(-n2ncc3cnc(Nc4cc(OC)c(OC)c(OCCCN5CCN(C)CC5)c4)nc32)cc1", "test_result": "25%"}
{"compound": "CN(C)C/C=C/C(=O)Nc1cccc(C(=O)Nc2ccc(Nc3nccc(-c4cccnc4)n3)cc2)c1", "test_result": "92%"}
{"compound": "Cc1ccc(-c2ccc3c(ccc4sc5c(c43)NC[C@@H](C)NC5=O)n2)cn1", "test_result": "93%"}
{"compound": "Cc1cc(NC(=O)c2cccc(NC(=O)/C=C/CN(C)C)c2)ccc1Nc1nccc(-c2cccnc2)n1", "test_result": "101%"}
{"compound": "NC(=O)Nc1ccc2c(c1)/C(=C/c1cc(-c3cccnc3)c[nH]1)C(=O)N2", "test_result": "5%"}
{"compound": "Cn1c(=O)c2c(ncn2C)n(C)c1=O", "test_result": "90%"}
{"compound": "CNC(=O)C1[C@H]2O[C@@](C)([C@@H]1N)n1c3ccccc3c3c4c(c5c6ccccc6n2c5c31)C(=O)NC4 (some centres not stated)", "test_result": "2%"}
{"compound": "Cc1cccc(-c2nn(C(=S)Nc3ccccc3)cc2-c2ccnc3ccccc23)n1", "test_result": "99%"}
{"compound": "c1ccc2c(-c3cnn4cc(-c5ccc(N6CCNCC6)cc5)cnc34)ccnc2c1", "test_result": "96%"}
{"compound": "CNc1nc(-c2ccc3c(N)n[nH]c3c2)cc(N2C[C@@H](C(=O)NC3CCCCC3)CC[C@H]2C)n1", "test_result": "111%"}
{"compound": "COc1ccc2c(c1)c1c3c(c4c5ccccc5n(C)c4c1n2CC(O)CN(C)C)C(=O)NC3=O (configuration not stated)", "test_result": "64%"}
